test system: HOP-62 NSCLC; assay: NCI tumour cell line growth inhibition, 48 h
Would you mind telling me the reported TGI of each entry?

Solved cases (4 shown):
molecule: CC(=O)c1ccc(NCn2nc(-c3ccccc3O)oc2=S)cc1
TGI: > 100 µM
//
molecule: Cc1cc(C)c(S(=O)(=O)Oc2ccccc2[N+](=O)[O-])c(C)c1
TGI: > 100 µM
//
molecule: CC(C)(C)c1cc2c(OP(c3ccccc3)c3ccccc3)c(c1)Cc1cc(C(C)(C)C)cc(c1OP(c1ccccc1)c1ccccc1)Cc1cc(C(C)(C)C)cc(c1OP(c1ccccc1)c1ccccc1)Cc1cc(C(C)(C)C)cc(c1OP(c1ccccc1)c1ccccc1)C2
TGI: > 50 µM
//
molecule: C1CSCCSS[C@@H]2CCCCC2SC1 (stereo partly drawn)
TGI: > 100 µM

# batch size: 4; output TGI per entry
1. COc1ccc(S(=O)(=O)N2CCCCC2)cc1NC(=O)c1[nH]c(C)c2c1CCCCC2=O
2. COc1cc([C@@H]2c3cc4c(cc3[C@@H](NC(=O)c3ccc(C(C)=O)cc3)C3COC(=O)[C@@H]32)OCO4)cc(OC)c1O (stereo partly drawn)
3. COc1cc([N+](=O)[O-])c(S(=O)(=O)O)cc1-n1nc(-c2ccccc2)n[n+]1-c1cc(S(=O)(=O)[O-])c([N+](=O)[O-])cc1OC
4. C/C(=N\O)C(CN(C)C)C(c1ccccc1)c1c(O)c2ccccc2oc1=O (stereo not drawn)

1. > 100 µM
2. 1.35 µM
3. > 100 µM
4. > 100 µM

----------
tested on: SR leukemia; assay: NCI tumour cell line growth inhibition, 48 h
Would you mind telling me the reported TGI of each entry?

molecule: O=C(c1cccs1)N(C(=S)OCc1ccccn1)c1ccccc1
TGI: > 100 µM
//
molecule: CCOc1ccccc1N=C(NC(=O)CC)SC
TGI: > 100 µM
//
molecule: Nc1nonc1-c1noc(-c2nonc2N)[n+]1[O-]
TGI: > 100 µM

# batch size: 4; output TGI per entry
1. C=C(C)[C@@H]1CC[C@]2(c3ncc(C)o3)CC[C@]3(C)[C@H](CC[C@@H]4[C@@](C)(CCC#N)[C@H](C(=C)C)CC[C@]43C)[C@@H]12
2. C=CC1(C)/C(=N\O)C(C)(CC)C(=O)N1O (stereo not given)
3. S=C(NNC1=NCCCCN1)Nc1ccccc1
4. COc1cc2c(cc1OC)C(C1(O)CCCCC1)NCC2 (stereo not given)

["> 100 µM", "> 100 µM", "> 100 µM", "> 100 µM"]

# batch size: 7; output TGI per entry
1. C/C(=N/NC(=S)Nc1cccc(Cl)c1)c1cccc(/C(C)=N\NC(=S)Nc2cccc(Cl)c2)n1
2. O=c1cc2oc3ccc4ccccc4c3cc-2c(=O)[nH]1
3. COc1ccc(-n2nc(C)c3c(Nc4ccc(NC(=O)Nc5cc(C(F)(F)F)ccc5F)cc4)ncnc32)cc1
4. c1csc(-c2cc(-c3ccsc3)c(-c3cccs3)s2)c1
5. COc1ccc(/C=C/c2cc(=O)cc(/C=C/c3ccc(OC)c(O)c3)o2)cc1O
6. S=C(S)NCCCn1ccnc1
7. COC(=O)C1=C(C(=O)OC)C2(/N=C(\Nc3ccccc3)c3ccccc3)N(c3ccc(OC)cc3)CC(c3ccccc3)N2O1 (stereo not given)

1: 4.56 µM; 2: 11 µM; 3: > 100 µM; 4: > 100 µM; 5: 2.89 µM; 6: > 100 µM; 7: > 100 µM

# batch size: 6; output TGI per entry
1. CNC(=S)N/N=C(\C)c1ccc(OC)cc1O
2. COC(=O)c1cc(Cl)ccc1NC(=O)C1CCCCC1
3. CCCNCC(O)/C=C/[Si](C)(C)C (stereo not given) (tested in a mixture with another compound)
4. O=C(Nc1ccccc1)N1CC(CN2CCN(c3ccccc3)CC2)OC1=O (stereo not given)
5. C=C(Cl)C(Br)(CCl)CCC(Cl)C(C)C (stereo not given) (tested in a mixture with another compound)
6. NC(=O)c1nnc2cc(F)c(F)cc2c1N

1. > 100 µM
2. > 100 µM
3. > 100 µM
4. > 100 µM
5. > 100 µM
6. > 100 µM

# batch size: 8; output TGI per entry
1. O=C(/C=C/c1ccccc1)c1ccc(O)c(CN2CCN(c3cc4c(cc3F)c(=O)c(C(=O)O)cn4C3CC3)CC2)c1
2. CCCCCCCCCCCCCCCC[N+](C)(C)C
3. COc1ccc2c3c([nH]c2c1[N+](=O)[O-])C(C)N(C(=O)/C=C/c1ccccc1)CC3 (stereo not given)
4. COC(=O)[C@@H]1C[C@H]2[C@H](c3ccccc3Br)[C@@H](OC(C)=O)[C@@H](OCc3ccccc3)ON2O1
5. CC1=CC(=O)c2cccc(O)c2C1=O
6. CCOC(=O)C1=C(C)N2CCCOC2(C)C(C(=O)OC)C1c1cccc([N+](=O)[O-])c1 (stereo not given)
7. O=C(O)c1cc2c3c(c1)[C@H]1C=CC[C@H]1CN3CC1CC=CC21 (stereo not given in full)
8. O=S(=O)(O)c1cc(O)c2c(O)c(N=Nc3ccc(/C=C/c4ccc(N=Nc5c(S(=O)(=O)O)cc6cc(S(=O)(=O)O)cc(O)c6c5O)cc4S(=O)(=O)O)c(S(=O)(=O)O)c3)c(S(=O)(=O)O)cc2c1

1: > 100 µM; 2: 0.551 µM; 3: > 100 µM; 4: > 100 µM; 5: > 21.9 µM; 6: > 100 µM; 7: > 100 µM; 8: > 100 µM

# batch size: 5; output TGI per entry
1. Nc1nc(Cl)cc(NCCCCO)n1
2. COc1cc2c3c(n(CCCn4cccn4)c(=O)c2cc1OC)-c1cc2c(cc1C3=O)OCO2
3. CCCN(CCC)C(=O)Cc1c2n(c3ccccc13)CCCc1ccccc1-2
4. CC(C)NCCCNC1=C(Cl)C(=O)c2ccccc2C1=O
5. CCc1nc2cc(/C=C/C(=O)NO)c(F)cc2c(=O)n1CCc1ccccc1

> 100 µM
1.57 µM
24.8 µM
6.08 µM
> 100 µM

# batch size: 3; output TGI per entry
1. CCOc1ccccc1N=NC1C(=O)N(C(=O)CC(=O)Nc2ccccc2Cl)N=C1C (stereo not given)
2. CCCCCCCCCCCCCC/C(=C/OCC[N+](C)(C)C)OC(C)=O (tested in a mixture with another compound)
3. CCCCCCCCOC(=O)c1cc(O)c(O)c(O)c1

["> 100 µM", "4.57 µM", "10.3 µM"]

# batch size: 4; output TGI per entry
1. CCCCCn1ncc(-c2c(O)c(O)cc3c(O)c(-c4c(C)cc5c(-c6cnn(CCCCC)n6)c(O)c(O)cc5c4O)c(C)cc23)n1
2. Cc1c2ccccc2nc2[nH]c3ccncc3c12
3. CCOP(=O)(C/C(=N/NC(C)(C)C)C(=O)Nc1nc2ccc(C)cc2s1)OCC
4. CN1C(=O)NC2(O)c3ccccc3C(=O)C12O (stereo not given)

1. 7.27 µM
2. > 100 µM
3. > 100 µM
4. > 100 µM

----------
Would you mind telling me the reported log10(TGI) of each entry?
test system: HOP-92 NSCLC; experiment: NCI tumour cell line growth inhibition, 48 h
Lab note - TGI converted to log10 from values in µM.

molecule: CCCCCCc1ccc(O)cc1O
log10(TGI): 1.94
--
molecule: c1ccc(CN2CCC3(CC2)ONC2=NCCN23)cc1
log10(TGI): 1.77
--
molecule: COc1cc2c(C#N)n3c(c2cc1OC)C(=O)C(c1ccccc1)Oc1ccccc1-3 (configuration not stated)
log10(TGI): 0.74
--
molecule: COc1cc(CSc2ccc(O)cc2)cc(O)c1O
log10(TGI): 1.70
--
molecule: CCCCCn1ncc(-c2c(O)c(O)cc3c(O)c(-c4c(C)cc5c(-c6cnn(CCCCC)n6)c(O)c(O)cc5c4O)c(C)cc23)n1
log10(TGI): -0.62

# batch size: 5; output log10(TGI) per entry
1. COc1ccc(OC)c2c1C(=O)C(Cl)=C(Cl)C2=O
2. CN(C)CCCNC(=O)c1cc(NC(=O)CCCn2c3ccccc3c3ccccc32)cn1C
3. CCN(CCc1ccc(F)cc1)c1ccc(CO)c(Cl)c1
4. CCCCCCCCCCSS(=O)(=O)c1ccc(C)cc1
5. COc1ccc(Oc2nc3cc(C(F)(F)F)ccc3nc2C(C)C)cc1

[0.91, 0.97, 1.13, 1.43, 1.74]

----------
Would you mind telling me the reported TGI of each entry?
system: OVCAR-5 ovarian; assay: NCI tumour cell line growth inhibition, 48 h
Answers are plain numbers, in µM.

compound: N=C(N)SC1c2ccccc2-c2cc([N+](=O)[O-])ccc21 (centres undefined)
TGI (µM): 26.7

# batch size: 4; output TGI per entry
1. Cc1cc2cc(Oc3ccnc(Nc4cccc(CS(=O)(=O)NCCN(C)C)c4)n3)ccc2[nH]1
2. C[C@]1(O)CC(=O)[C@]2(O)C3=C(C=C[C@]2(O)C1)C(=O)c1c(O)cccc1C3=O
3. O=C(Cc1ccccc1)NN1C(=O)C(Cl)C1c1cc(Br)cc(Br)c1O (centres undefined)
4. O=c1c2ccccc2c(C=NCCNCCO)c2oc3ccccc3n12

19.5
19.8
38.5
29.1
